Biological target: T1, ECD of human DLL3 over-expressed on HEK293 cells (human, UniProt Q9NYJ7 27-492)
T1 construct: extracellular domain; also called HEK293-hDLL3; human DLL3 expressed on HEK293 cells
T1 sequence (looked up): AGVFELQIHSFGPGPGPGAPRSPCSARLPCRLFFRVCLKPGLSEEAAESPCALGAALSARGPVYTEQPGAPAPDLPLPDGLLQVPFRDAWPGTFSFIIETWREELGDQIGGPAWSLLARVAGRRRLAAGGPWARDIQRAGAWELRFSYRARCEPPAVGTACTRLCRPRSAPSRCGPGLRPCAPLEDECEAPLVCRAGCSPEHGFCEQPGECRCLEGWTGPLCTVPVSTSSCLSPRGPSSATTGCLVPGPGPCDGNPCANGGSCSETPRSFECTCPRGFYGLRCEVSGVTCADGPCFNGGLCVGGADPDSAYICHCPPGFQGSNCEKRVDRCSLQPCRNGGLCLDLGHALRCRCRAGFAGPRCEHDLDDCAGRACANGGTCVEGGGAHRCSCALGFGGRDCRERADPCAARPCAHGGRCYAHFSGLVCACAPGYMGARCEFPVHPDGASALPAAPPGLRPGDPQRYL
Experiment: flow cytometry on HEK293-hDLL3 cells

binder	binding result
310P3C5-z15p19 PTM removed humanized antibody (antibody, V domains shown, variable regions fused to the constant region of human IgG1) VH: QVQLVQSGAEVKKPGASVKVSCKASGYTFTDFYMNWVKQAPGQGLEWIGDANPNVGGTTHNPRFKGRATLTVDKSASTAYMELRSLRSEDTAVYYCARGGLPGDFDYWGQGTTVTVSS VL: DIQMTQSPSSLSASVGDRVTITCKASEDIYNRLAWYQQKPGKAPKLLISGVTSLETGVPSRFSGSGSGTDFTFTISSLQPEDIATYYCQQYWSFPWTFGGGTKVEIK	binds
310P3C5-z15p18 PTM removed humanized antibody (antibody, V domains shown, variable regions fused to the constant region of human IgG1) VH: QVQLVQSGAEVKKPGASVKVSCKASGYTFTDFYMNWVKQAPGQGLEWIGDANPNRGGTTHNPRFKGRATLTVDKSASTAYMELRSLRSEDTAVYYCARGGLPGDFDYWGQGTTVTVSS VL: DIQMTQSPSSLSASVGDRVTITCKASEDIYNRLAWYQQKPGKAPKLLISGVTSLETGVPSRFSGSGSGTDFTFTISSLQPEDIATYYCQQYWSFPWTFGGGTKVEIK	binds
310P3C5-z15p13 PTM removed humanized antibody (antibody, V domains shown, variable regions fused to the constant region of human IgG1) VH: QVQLVQSGAEVKKPGASVKVSCKASGYTFTDFYMNWVKQAPGQGLEWIGDANPNHGGTTHNPRFKGRATLTVDKSASTAYMELRSLRSEDTAVYYCARGGLPGDFDYWGQGTTVTVSS VL: DIQMTQSPSSLSASVGDRVTITCKASEDIYNRLAWYQQKPGKAPKLLISGVTSLETGVPSRFSGSGSGTDFTFTISSLQPEDIATYYCQQYWSFPWTFGGGTKVEIK	binds
